test system: HCT-15 colon; test: NCI tumour cell line growth inhibition, 48 h

molecule: O=C(/C=C/c1ccccc1O)CC(=O)/C=C/c1ccccc1O
qualifying.sign: =
TGI / µM: 19.9
--
molecule: COc1cc(CNc2nc3cc(C(F)(F)F)ccc3nc2C(=O)O)cc(OC)c1OC
qualifying.sign: >
TGI / µM: 100
--
molecule: O=C(O)C(=O)/C=C\c1ccc(Cl)cc1
qualifying.sign: >
TGI / µM: 100
--
molecule: COc1ncn(C2C=C(CO)C(O)C2O)c(=O)n1 (stereo not given)
qualifying.sign: >
TGI / µM: 100
--
molecule: c1cc(C2O[C@H]3CCCN3[C@@H]2c2ccncc2)ccn1 (stereo not given in full)
qualifying.sign: >
TGI / µM: 100
--
molecule: CCCc1c(OC)c(O)c2c(=O)cc(OC)c3c4c(OC)cc(=O)c5c(O)c(OC)c(CCC)c(c1c23)c54
qualifying.sign: =
TGI / µM: 22.9
--
molecule: CO/C=C(/C(=O)OC)c1ccccc1[C@H]1C[C@@H]1c1ccc(OC)cc1
qualifying.sign: =
TGI / µM: 66.1
--
molecule: COC1=CC(=O)c2c(O)c3c(c(O)c2C1=O)CC(C)(O)OC3 (stereo not given)
qualifying.sign: =
TGI / µM: 9.08
--
molecule: NNC(=S)N/N=C(\c1nc2ccc(Cl)cc2[nH]c1=O)C(O)c1ccc(Cl)cc1Cl (stereo not given)
qualifying.sign: >
TGI / µM: 100
--
molecule: CCOC(=O)C(C(N)=O)c1nc2cc([N+](=O)[O-])ccc2nc1/C=C(\O)c1ccc(C)cc1 (stereo not given)
qualifying.sign: >
TGI / µM: 82.2

###

test system: COLO 205 colon; assay: NCI tumour cell line growth inhibition, 48 h

compound: CCCCC(=O)Nc1ccc2cc(C(=O)OC)c(=O)[nH]c2n1
qualifying.sign: >
TGI (µM): 100

compound: COc1ccc(/C=N/N=C(N)N)c(C(=O)O)c1OC
qualifying.sign: >
TGI (µM): 10

compound: CC(CCC(=O)O)(c1cc(Br)c(O)c(Br)c1)c1cc(Br)c(O)c(Br)c1
qualifying.sign: >
TGI (µM): 100

compound: CCCCCCCCOCC(O)COC (stereo not given)
qualifying.sign: >
TGI (µM): 100

compound: COC1=CC(=O)c2c(O)c3c(c(O)c2C1=O)CC(C)(O)OC3 (stereo not given)
qualifying.sign: =
TGI (µM): 4.76

compound: O=C(CCCCCn1c2ccccc2c2c3c(c4c5ccccc5[nH]c4c21)C(=O)N(O)C3=O)N1CCOCC1
qualifying.sign: =
TGI (µM): 5.65

compound: O=C(NCCc1ccc(F)cc1)c1cc(/C=C/c2cc(O)ccc2O)ccc1O
qualifying.sign: =
TGI (µM): 13.6

compound: CN(C)c1ccc(C(=C2C=CC(=[N+](C)C)C=C2)c2c(O)c(S(=O)(=O)[O-])cc3cc(S(=O)(=O)O)ccc23)cc1
qualifying.sign: >
TGI (µM): 100

compound: O=C1CCCc2ccc3c(c21)CC1(Cc2cc4c(cc2C1)CCCC4)C3
qualifying.sign: =
TGI (µM): 31.1

compound: COC12OC3(C4OC41)C(C(=O)O[C@H]3CO[Si](C)(C)C(C)(C)C)C2S(=O)(=O)c1ccccc1 (stereo not given in full)
qualifying.sign: =
TGI (µM): 47.3

###

Reported TGI values for a set of molecules
system: A498 renal; assay: NCI tumour cell line growth inhibition, 48 h

molecule: Cc1ccc(N=c2oc3c(ccc4ccccc43)nc2Nc2ccc(C)cc2)cc1
target.or.test.system: A498 renal
TGI: > 100 µM

molecule: COC(CO[Si](C)(C)N[Si](C)(C)OCC(OC)c1ccccc1)c1ccccc1 (stereo unspecified)
target.or.test.system: A498 renal
TGI: > 100 µM

molecule: CCNc1nc2ccccc2nc1NCC
target.or.test.system: A498 renal
TGI: > 100 µM

molecule: CCCCc1ccc(Nc2nc(N)c3[nH]cnc3n2)cc1
target.or.test.system: A498 renal
TGI: 24.2 µM

molecule: C(=C/c1ccc2nc(-c3ccc(/C=C/C=N/NC4=NCCCN4)cc3)cn2c1)/C=N/NC1=NCCCN1
target.or.test.system: A498 renal
TGI: > 100 µM

molecule: COc1cc(C2CC(c3ccc(C)cc3)=NN2C(C)=O)ccc1Oc1ccnc2cc(Cl)ccc12 (stereo unspecified)
target.or.test.system: A498 renal
TGI: 78 µM

###

tested on: SNB-19 CNS; assay: NCI tumour cell line growth inhibition, 48 h
Where a SMILES comes first, the peptide text is derived from it. The star is where a group is joined. Boc = CC(C)(C)OC(=O)*; OBn = c1ccc(CO*)cc1; Bn = c1ccc(C*)cc1
endpoint.name: TGI

molecule: COc1ccc(-c2ccc(/C=N/n3cnn(CN4CCN(C)CC4)c3=S)o2)c([N+](=O)[O-])c1
test.result: > 100 µM
--
molecule: CC(C)CCC[C@@H](C)C1CCC2[C@@H]3CC=C4C[C@@H](OC(=O)CCC(=O)NCC[N+](C)(C)CCCS(=O)(=O)[O-])CC[C@]4(C)C3CC[C@@]21C (stereo partly drawn)
test.result: 44.7 µM
--
molecule: N#CC1(Cc2ccccc2Cl)c2ccccc2C=CN1C(=O)c1ccccc1 (stereo not drawn)
test.result: > 100 µM
--
molecule: c1ccc(C[P+]2(c3ccccc3)CCCCC2)cc1
test.result: > 100 µM
--
molecule: C=CCCCN1C(=O)C2C3c4ccccc4C(C=O)(c4ccccc43)C2C1=O (stereo not drawn)
test.result: 32.1 µM
--
molecule: COC1=C(NC(C)=O)C(=O)c2nc3n(c2C1=O)CCC3
test.result: 67.6 µM
--
molecule: COc1cc(C2CC(c3ccc(C)cc3)=NN2C(C)=O)ccc1Oc1ccnc2cc(Cl)ccc12 (stereo not drawn)
test.result: > 100 µM
--
molecule: CC(C)(C)NC(=O)C12C3C4C1C1C2C3C41I (stereo not drawn)
test.result: > 100 µM
--
molecule: CC1CN=C(c2ccc3c(c2)Cc2cc(C4=NCC(C)N4)ccc2-3)N1 (stereo not drawn)
test.result: > 100 µM
--
molecule: COc1ccc2c(c1)Cc1cc(N=[N+]([O-])c3ccc4c(c3)Cc3cc(OC)ccc3-4)ccc1-2
test.result: > 100 µM
--
molecule: Nc1ccc(Cl)cc1.Nc1ccc(Cl)cc1.Nc1ccc(Cl)cc1.O=C([O-])C(=O)[O-].O=C([O-])C(=O)[O-].[H+].[Ru+5]
test.result: > 100 µM
--
molecule: CC(C)CC(NC(=O)C(CCC(=O)OCc1ccccc1)NC(=O)OC(C)(C)C)C(=O)NC(COCc1ccccc1)C(=O)NC(Cc1ccccc1)C(=O)O (stereo not drawn) (Boc-E(OBn)LS(Bn)F-OH; configuration not given here)
test.result: > 100 µM
--
molecule: CN(CCN(C)Cc1ccc(Cl)c(Cl)c1)CCN1CCCC1
test.result: > 100 µM
--
molecule: CC(CC(C)[C@H]1CCC2[C@H]3C(CC[C@@]21C)[C@@]1(C)CCC(O)C[C@H]1C[C@@H]3O)C(=O)O (stereo partly drawn)
test.result: > 100 µM
--
molecule: CCCc1c(OC)c(O)c2c(=O)cc(OC)c3c4c(OC)cc(=O)c5c(O)c(OC)c(CCC)c(c1c23)c54
test.result: 16.8 µM
--
molecule: O=C(/C=C/c1ccccc1O)CC(=O)/C=C/c1ccccc1O
test.result: 22.9 µM
--
molecule: Cc1ccc(NC(=O)C(=O)C2C(=O)C3=C(CC2(C)C)NC2C=CC=CC2S3)c(C)c1 (stereo not drawn)
test.result: > 100 µM
--
molecule: OCCOCn1nc(-c2ccccc2)nc1-c1cnccn1
test.result: > 100 µM

###

system: BT-549 breast; assay: NCI tumour cell line growth inhibition, 48 h
The following compounds are listed with their measured TGI values.
endpoint.name: TGI

sample.smiles: CCCCC(=O)Nc1ccc2cc(C(=O)OC)c(=O)[nH]c2n1
test.result: > 100 µM
--
sample.smiles: Cc1cc([C@H](C#N)c2nc3ccccc3s2)nc(Cl)n1
test.result: 35.6 µM
--
sample.smiles: COc1cc2[nH]c(=O)[nH]c2c2c(C)c[nH]c12
test.result: > 100 µM
